Taken from patent US8921559B2.

The molecules listed here are annotated with their pIC50.
Biological target: CCR2 (Homo sapiens (Human))
Assay: MCP-1 Receptor Binding Assay in THP-1 Cells
Settings: 0.5 nM 125I labeled MCP-1, 2 hours at 30° C., average of the two most similar values where more than one IC50, read-out: Inhibition of MCP-1 Binding IC50 CCR2 Binding
In simple prose, pIC50 is minus the logarithm base ten of a concentration in moles per litre.

Q: Any idea what its pIC50 is? The molecule is NC(=O)C(NC1CCC(c2c[nH]c3ccccc23)CC1)C1CCN(C(=O)Nc2cccc(C(F)(F)F)c2)CC1 (stereo not shown)
Ans: 6.82

Q: Any idea what its pIC50 is? The molecule is NC(=O)C(NC1CCC(c2c[nH]c3ccccc23)CC1)C1CCN(C(=O)/C=C/c2cccc(F)c2)CC1 (stereo not shown)
Ans: 7.64

Q: Any idea what its pIC50 is? The molecule is CCOC(=O)c1ccc(NC(=O)N2CCC(C(NC3CCC(c4c[nH]c5ccccc45)CC3)C(N)=O)CC2)cc1 (stereo not shown)
Ans: 6.26

Q: Any idea what its pIC50 is? The molecule is NC(=O)C(N[C@H]1CC[C@H](c2c[nH]c3cccnc32)CC1)C1CCN(C(=O)/C=C/c2ccccc2)CC1 (stereo partly shown)
Ans: 6.91

Q: Any idea what its pIC50 is? The molecule is NC(=O)C(NC1CCC(c2c[nH]c3ccccc23)CC1)C1CCN(C(=O)/C=C/c2ccc(C(F)(F)F)cc2)CC1 (stereo not shown)
Ans: 6.87

---

Biological target: CCR2 (Homo sapiens (Human), UniProt P41597)
Sequence (P41597 other isoform, or with tags, fused parts or gaps isoform P41597-2): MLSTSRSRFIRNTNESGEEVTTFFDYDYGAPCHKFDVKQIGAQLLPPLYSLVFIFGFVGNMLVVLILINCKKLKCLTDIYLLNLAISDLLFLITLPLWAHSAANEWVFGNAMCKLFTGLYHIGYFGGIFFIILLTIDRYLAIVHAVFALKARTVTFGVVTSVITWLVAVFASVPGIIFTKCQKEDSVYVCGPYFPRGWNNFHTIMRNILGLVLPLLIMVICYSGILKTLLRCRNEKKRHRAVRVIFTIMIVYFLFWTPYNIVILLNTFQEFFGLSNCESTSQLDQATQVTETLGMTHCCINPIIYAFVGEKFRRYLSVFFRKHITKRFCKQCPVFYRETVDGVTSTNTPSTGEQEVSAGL
Test: MCP-1 Receptor Binding Assay in THP-1 Cells
Conditions: 0.5 nM 125I labeled MCP-1, 2 hours at 30° C., average of the two most similar values where more than one IC50, read-out: Inhibition of MCP-1 Binding IC50 CCR2 Binding
In plain terms, low IC50, meaning strictly below 500 nM, gives y, and everything else gives n.

Study these solved cases before continuing.
MOLECULE | CLASSIFICATION
NC(=O)C(NC1CCC(c2c[nH]c3ccccc23)CC1)C1CCN(C(=O)/C=C/c2ccc(F)cc2)CC1 (stereo not shown) [Example 6] | y
NC(=O)C(NC1CCC(c2c[nH]c3ccccc23)CC1)C1CCN(C(=O)/C=C/c2ccc3c(c2)OC(F)(F)O3)CC1 (stereo not shown) [Example 17] | y
NC(=O)C(NC1CCC(c2c[nH]c3ccccc23)CC1)C1CCN(C(=O)Nc2cccc(F)c2)CC1 (stereo not shown) [Example 20] | y
NC(=O)C(NC1CCC(c2c[nH]c3ccccc23)CC1)C1CCN(C(=O)Nc2ccc(F)cc2)CC1 (stereo not shown) [Example 29] | n
NC(=O)C(NC1CCC(c2c[nH]c3ccccc23)CC1)C1CCN(C(=O)Nc2ccc(Cl)c(Cl)c2)CC1 (single isomer, unassigned) [Example 4a] | y
CNC(=O)C(NC1CCC(c2c[nH]c3ccccc23)CC1)C1CCN(C(=O)/C=C/c2cc(F)c(F)c(F)c2)CC1 (stereo not shown) [Example 53] | n

Q: Confirm or reject: IC50 of NC(=O)C(NC1CCC(c2c[nH]c3ccccc23)CC1)C1CCN(C(=O)/C=C/c2ccc3c(c2)CCCO3)CC1 (stereo not shown) [Example 33] lies strictly below 500 nM
Ans: n
